Listed here: items and their measured herbicidal activity on Abutilon theophrasti.
- Tested on: Abutilon theophrasti
- protocolDetails: Post-emergence herbicidal action
- Format: in vivo
- measurementSetup: 1280 g/ha, rated visually after about 3 weeks vs untreated controls
assayMetric: herbicidal activity on Abutilon theophrasti (%)

1) Cc1c(Sc2cccc(F)c2)c(Oc2ncccn2)nn1C | 100
2) CCc1c(Sc2cccc(F)c2)c(Oc2ncc(F)cn2)nn1C | 100
3) CCc1c(Sc2ccc(F)c(F)c2)c(Oc2ncccn2)nn1C | 100
4) Cc1c(Sc2ccc(F)cc2)c(Oc2ncc(F)cn2)nn1C | 100
5) Cc1c(Sc2cccc(C(F)(F)F)c2)c(Oc2ncccn2)nn1C | 80
6) COc1cnc(Oc2nn(C)c(C)c2Sc2ccc(F)cc2F)nc1 | 90
7) COc1cnc(Oc2nn(C)c(C)c2Sc2ccc(F)c(F)c2)nc1 | 90
8) Cc1c(Sc2ccc(F)cc2)c(Oc2ncc(Cl)cn2)nn1C | 80
9) Fc1ccc(Sc2c(Oc3ncc(F)cn3)nn3c2CCOCC3)cc1 | 100
10) Cc1c(Sc2ccc(F)cc2F)c(Oc2ncc(F)cn2)nn1C | 100
11) Fc1ccc(Sc2c(Oc3ncccn3)nn3c2CCC3)cc1 | 90
12) CCc1c(Sc2ccc(F)c(F)c2)c(Oc2ncc(F)cn2)nn1C | 90
13) CCc1c(Sc2ccc(F)cc2)c(Oc2ncccn2)nn1C | 80
14) Cc1ccnc(Oc2nn(C)c(C)c2Sc2cccc(Cl)c2)n1 | 80
15) Fc1ccc(Sc2c(Oc3ncccn3)nn3c2CCOCC3)c(F)c1 | 90
16) Cc1c(Sc2cccc(F)c2)c(Oc2ncc(F)cn2)nn1C | 90
17) CCc1c(Sc2ccc(F)cc2)c(Oc2ncc(F)cn2)nn1C | 90
18) Cc1c(Sc2ccccc2)c(Oc2ncc(F)cn2)nn1C | 100
19) CCc1c(Sc2ccccc2)c(Oc2ncc(F)cn2)nn1C | 80
20) Cc1c(Sc2ccc(F)c(F)c2)c(Oc2cnccn2)nn1C | 90
21) COc1cnc(Oc2nn(C)c(C)c2Sc2ccccc2)nc1 | 100
22) CCc1c(Sc2cccc(Cl)c2)c(Oc2ncccn2)nn1C | 100
23) Cc1c(Sc2ccc(F)cc2F)c(Oc2ncccn2)nn1C | 100
24) Cc1c(Sc2ccc(F)cc2)c(Oc2ncccn2)nn1C | 80
25) COc1cnc(Oc2nn(C)c(C)c2Sc2cccc(Cl)c2)nc1 | 90
26) Cc1c(Sc2cccc(Cl)c2)c(Oc2ncc(F)cn2)nn1C | 80

====

- System: Polygonum convolvulus
- protocolDetails: Post-emergence herbicidal action
- Type: in vivo
- measurementSetup: 1280 g/ha, rated visually after about 3 weeks vs untreated controls
assayMetric: herbicidal activity on Polygonum convolvulus (%)

1) CCc1c(Sc2ccc(F)cc2)c(Oc2ncccn2)nn1C | 100
2) Cc1c(Sc2ccccc2)c(Oc2ncccn2)nn1C | 100
3) Cc1c(Sc2ccc(F)c(F)c2)c(Oc2ncc(F)cn2)nn1C | 100
4) CCc1c(Sc2ccc(F)c(F)c2)c(Oc2ncccn2)nn1C | 90
5) Cc1c(Sc2ccc(F)cc2)c(Oc2ncc(F)cn2)nn1C | 100
6) COc1cnc(Oc2nn(C)c(C)c2Sc2cccc(Cl)c2)nc1 | 80
7) Fc1ccc(Sc2c(Oc3ncccn3)nn3c2CCOCC3)c(F)c1 | 100
8) COc1cnc(Oc2nn(C)c(C)c2Sc2ccc(F)cc2)nc1 | 90
9) Fc1ccc(Sc2c(Oc3ncc(F)cn3)nn3c2CCOCC3)cc1 | 100
10) CCc1c(Sc2cccc(Cl)c2)c(Oc2ncccn2)nn1C | 100
11) CCc1c(Sc2ccc(F)cc2)c(Oc2ncc(F)cn2)nn1C | 90
12) COc1cnc(Oc2nn(C)c(C)c2Sc2ccccc2)nc1 | 100
13) CCc1c(Sc2ccc(F)cc2F)c(Oc2ncc(F)cn2)nn1C | 90
14) Cc1c(Sc2ccc(F)c(F)c2)c(Oc2cnccn2)nn1C | 100
15) Cc1c(Sc2ccc(F)c(F)c2)c(Oc2ncccn2)nn1C | 100
16) Cc1c(Sc2ccccc2)c(Oc2ncc(F)cn2)nn1C | 100
17) CCn1cc(Sc2ccc(F)cc2)c(Oc2ncc(Cl)cn2)n1 | 80
18) Cc1c(Sc2ccc(F)cc2F)c(Oc2ncc(F)cn2)nn1C | 90
19) Cn1cc(Sc2ccccc2)c(Oc2ncc(Cl)cn2)n1 | 100
20) Cc1c(Sc2ccc(F)cc2)c(Oc2ncccn2)nn1C | 100

Origin of the recorded values: patent US20200181117A1
